- System: normal ECG in rats
- experimentalProtocol: The effect on normal electrocardiogram in rats
- Assay type: in vivo, rat
- testSettings: anesthetized rats, i.p. at ED84; 50 min
Listing of entries alongside the reported QRS (ECG).
measurementName: QRS (ECG) (ms)

[[record]]
smi = "COc1ccccc1N1CCN(CCCOc2c(C)cc(C)cc2C)CC1"
testedon = "normal ECG in rats"
reported = 27.6

[[record]]
smi = "COc1ccccc1N1CCN(CCCOc2cc(C)cc(C)c2C)CC1"
testedon = "normal ECG in rats"
reported = 36.0

[[record]]
smi = "COc1ccccc1N1CCN(CCOCCOc2c(C)cccc2Cl)CC1.Cl"
testedon = "normal ECG in rats"
reported = 26.1

[[record]]
smi = "COc1ccccc1N1CCN(CCOCCOc2c(C)cccc2C)CC1.Cl"
testedon = "normal ECG in rats"
reported = 26.7

[[record]]
smi = "COc1ccccc1N1CCN(CCCOc2cc(C)ccc2Cl)CC1"
testedon = "normal ECG in rats"
reported = 22.0


====

Listing of entries alongside the reported Absorbance.
- Test system: lipid peroxidation in rat brain homogenate
- experimentalProtocol: Lipid peroxidation in rat brain homogenate (TBARS), antioxidant effect
- Type: biochemical
- testSettings: 10^−3 M, TBARs at 532 nm
measurementName: Absorbance

[[record]]
compound = "COc1ccccc1N1CCN(CCOCCOc2c(C)cccc2Cl)CC1.Cl [HBK-15]"
testedon = "lipid peroxidation in rat brain homogenate"
reported = 0.891

[[record]]
compound = "COc1ccccc1N1CCN(CCOCCOc2c(C)cccc2C)CC1.Cl [HBK-14]"
testedon = "lipid peroxidation in rat brain homogenate"
reported = 0.939

[[record]]
compound = "COc1ccccc1N1CCN(CCCOc2cc(C)ccc2Cl)CC1 [HBK-16]"
testedon = "lipid peroxidation in rat brain homogenate"
reported = 0.752

[[record]]
compound = "COc1ccccc1N1CCN(CCCOc2c(C)cc(C)cc2C)CC1 [HBK-18]"
testedon = "lipid peroxidation in rat brain homogenate"
reported = 0.781

[[record]]
compound = "COc1ccccc1N1CCN(CCCOc2cc(C)cc(C)c2C)CC1 [HBK-19]"
testedon = "lipid peroxidation in rat brain homogenate"
reported = 0.698

[[record]]
compound = "COc1ccccc1OCCNCC(O)COc1cccc2[nH]c3ccccc3c12 (stereo not drawn) [Carvedilol, carvedilol, reference compound]"
testedon = "lipid peroxidation in rat brain homogenate"
reported = 0.094


====

- Tested on: normal ECG in rats
- experimentalProtocol: The effect on normal electrocardiogram in rats
- Format: in vivo, rat
- testSettings: anesthetized rats, i.p. at ED84; 15 min
Listing of entries alongside the reported QRS (ECG).
measurementName: QRS (ECG) (ms)

[[record]]
smi = "COc1ccccc1N1CCN(CCCOc2cc(C)cc(C)c2C)CC1"
measurementname = "QRS (ECG)"
reported = 32.0

[[record]]
smi = "COc1ccccc1N1CCN(CCCOc2c(C)cc(C)cc2C)CC1"
measurementname = "QRS (ECG)"
reported = 27.0

[[record]]
smi = "COc1ccccc1N1CCN(CCOCCOc2c(C)cccc2C)CC1.Cl"
measurementname = "QRS (ECG)"
reported = 27.0

[[record]]
smi = "COc1ccccc1N1CCN(CCOCCOc2c(C)cccc2Cl)CC1.Cl"
measurementname = "QRS (ECG)"
reported = 25.6

[[record]]
smi = "COc1ccccc1N1CCN(CCCOc2cc(C)ccc2Cl)CC1"
measurementname = "QRS (ECG)"
reported = 21.7


====

- testedOn: α1D-adrenoreceptors (Rattus norvegicus, UniProt P23944)
- Sequence (P23944 whole entry): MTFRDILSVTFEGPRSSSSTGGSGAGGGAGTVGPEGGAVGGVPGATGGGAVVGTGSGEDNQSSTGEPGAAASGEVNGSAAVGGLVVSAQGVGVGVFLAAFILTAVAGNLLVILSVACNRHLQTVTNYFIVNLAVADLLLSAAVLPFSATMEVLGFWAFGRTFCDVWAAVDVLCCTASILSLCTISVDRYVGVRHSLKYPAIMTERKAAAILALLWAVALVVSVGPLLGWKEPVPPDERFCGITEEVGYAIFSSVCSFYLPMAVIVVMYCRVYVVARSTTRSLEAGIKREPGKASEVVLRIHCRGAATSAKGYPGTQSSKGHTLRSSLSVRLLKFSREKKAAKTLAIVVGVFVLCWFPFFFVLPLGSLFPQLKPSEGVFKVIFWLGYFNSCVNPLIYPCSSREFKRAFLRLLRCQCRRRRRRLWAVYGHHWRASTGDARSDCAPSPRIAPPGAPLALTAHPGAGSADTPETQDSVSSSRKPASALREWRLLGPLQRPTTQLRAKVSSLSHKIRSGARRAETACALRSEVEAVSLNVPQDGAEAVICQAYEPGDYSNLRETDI
- experimentalProtocol: Functional bioassay, isolated rat aorta, noradrenaline contraction
- Type: biochemical
- Design: had aorta removed, denuded of endothelium and incubated in the Krebs-Henseleit solution; from tissue; host or cells: isolated rat aorta rings
- testSettings: noradrenaline as agonist
measurementName: Schild slope ± S.E.M., α1D

[[record]]
compound = "COc1ccccc1N1CCN(CCOCCOc2c(C)cccc2C)CC1.Cl [HBK-14]"
reported = 1.09

[[record]]
compound = "COc1ccccc1N1CCN(CCCOc2c(C)cc(C)cc2C)CC1 [HBK-18]"
reported = 1.01

[[record]]
compound = "COc1ccccc1N1CCN(CCCOc2cc(C)cc(C)c2C)CC1 [HBK-19]"
reported = 1.03

[[record]]
compound = "COc1ccccc1N1CCN(CCOCCOc2c(C)cccc2Cl)CC1.Cl [HBK-15]"
reported = 1.09

[[record]]
compound = "COc1ccccc1N1CCN(CCCOc2cc(C)ccc2Cl)CC1 [HBK-16]"
reported = 1.11


====

- Test system: normal ECG in rats
- experimentalProtocol: The effect on normal electrocardiogram in rats
- Assay type: in vivo, rat
- testSettings: anesthetized rats, i.p. at ED84; 0 min (initial values)
measurementName: QT (ECG) (ms)

[[record]]
smi = "COc1ccccc1N1CCN(CCOCCOc2c(C)cccc2C)CC1.Cl"
reported = 85.8

[[record]]
smi = "COc1ccccc1N1CCN(CCCOc2cc(C)cc(C)c2C)CC1"
reported = 76.4

[[record]]
smi = "COc1ccccc1N1CCN(CCCOc2cc(C)ccc2Cl)CC1"
reported = 51.4

[[record]]
smi = "COc1ccccc1N1CCN(CCCOc2c(C)cc(C)cc2C)CC1"
reported = 73.9

[[record]]
smi = "COc1ccccc1N1CCN(CCOCCOc2c(C)cccc2Cl)CC1.Cl"
reported = 87.3


====

- Test system: normal ECG in rats
- experimentalProtocol: The effect on normal electrocardiogram in rats
- Format: in vivo, rat
- testSettings: anesthetized rats, i.p. at ED84; 30 min
Listing of entries alongside the reported QTc (ECG, Bazett).
measurementName: QTc (ECG, Bazett) (ms)

[[record]]
smi = "COc1ccccc1N1CCN(CCCOc2cc(C)cc(C)c2C)CC1"
readoutunit = "ms"
reported = 177.0

[[record]]
smi = "COc1ccccc1N1CCN(CCCOc2c(C)cc(C)cc2C)CC1"
readoutunit = "ms"
reported = 159.0

[[record]]
smi = "COc1ccccc1N1CCN(CCOCCOc2c(C)cccc2Cl)CC1.Cl"
readoutunit = "ms"
reported = 206.4

[[record]]
smi = "COc1ccccc1N1CCN(CCCOc2cc(C)ccc2Cl)CC1"
readoutunit = "ms"
reported = 119.0

[[record]]
smi = "COc1ccccc1N1CCN(CCOCCOc2c(C)cccc2C)CC1.Cl"
readoutunit = "ms"
reported = 214.1


====

- testedOn: α1B-adrenoceptors (Mus musculus, UniProt P97717)
- Construct: The spleen was removed from male mice; from tissue; host or cells: isolated mouse spleen
- Sequence (P97717 whole entry): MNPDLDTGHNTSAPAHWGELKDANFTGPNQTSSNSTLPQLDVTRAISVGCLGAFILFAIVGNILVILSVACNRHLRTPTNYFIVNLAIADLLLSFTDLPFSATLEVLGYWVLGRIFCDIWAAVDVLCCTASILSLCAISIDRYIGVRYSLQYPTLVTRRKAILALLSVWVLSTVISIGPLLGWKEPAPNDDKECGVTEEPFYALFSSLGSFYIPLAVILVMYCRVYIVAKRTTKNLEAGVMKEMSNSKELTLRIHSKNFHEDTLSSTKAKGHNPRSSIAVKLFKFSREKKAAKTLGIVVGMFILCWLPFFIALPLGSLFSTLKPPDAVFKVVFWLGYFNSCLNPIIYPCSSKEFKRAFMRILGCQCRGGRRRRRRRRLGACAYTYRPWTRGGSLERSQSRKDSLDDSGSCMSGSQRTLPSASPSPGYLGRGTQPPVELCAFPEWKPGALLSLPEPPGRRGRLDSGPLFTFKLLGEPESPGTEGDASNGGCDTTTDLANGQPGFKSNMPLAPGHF
- experimentalProtocol: Functional bioassay, isolated mouse spleen, noradrenaline contraction
- Assay type: biochemical
- testSettings: noradrenaline as agonist
Listing of entries alongside the reported Schild slope ± S.E.M., α1B.
measurementName: Schild slope ± S.E.M., α1B

[[record]]
smi = "COc1ccccc1N1CCN(CCOCCOc2c(C)cccc2C)CC1.Cl"
reported = 1.03

[[record]]
smi = "COc1ccccc1N1CCN(CCCOc2cc(C)ccc2Cl)CC1"
reported = 1.03

[[record]]
smi = "COc1ccccc1N1CCN(CCOCCOc2c(C)cccc2Cl)CC1.Cl"
reported = 0.96

[[record]]
smi = "COc1ccccc1N1CCN(CCCOc2c(C)cc(C)cc2C)CC1"
reported = 1.03

[[record]]
smi = "COc1ccccc1N1CCN(CCCOc2cc(C)cc(C)c2C)CC1"
reported = 1.06


====

Listing of entries alongside the reported QRS (ECG).
- Test system: normal ECG in rats
- experimentalProtocol: The effect on normal electrocardiogram in rats
- Type: in vivo, rat
- testSettings: anesthetized rats, i.p. at ED84; 40 min
measurementName: QRS (ECG) (ms)

[[record]]
smi = "COc1ccccc1N1CCN(CCCOc2c(C)cc(C)cc2C)CC1"
testedon = "normal ECG in rats"
reported = 28.6

[[record]]
smi = "COc1ccccc1N1CCN(CCCOc2cc(C)cc(C)c2C)CC1"
testedon = "normal ECG in rats"
reported = 32.0

[[record]]
smi = "COc1ccccc1N1CCN(CCOCCOc2c(C)cccc2C)CC1.Cl"
testedon = "normal ECG in rats"
reported = 26.1

[[record]]
smi = "COc1ccccc1N1CCN(CCCOc2cc(C)ccc2Cl)CC1"
testedon = "normal ECG in rats"
reported = 21.7

[[record]]
smi = "COc1ccccc1N1CCN(CCOCCOc2c(C)cccc2Cl)CC1.Cl"
testedon = "normal ECG in rats"
reported = 28.0


====

- testedOn: α1A-adrenoceptors (Rattus norvegicus, UniProt P43140)
- Construct: the middle part of the ventral caudal artery was removed; from tissue; host or cells: isolated rat tail (ventral caudal) artery rings
- Sequence (P43140 1-466): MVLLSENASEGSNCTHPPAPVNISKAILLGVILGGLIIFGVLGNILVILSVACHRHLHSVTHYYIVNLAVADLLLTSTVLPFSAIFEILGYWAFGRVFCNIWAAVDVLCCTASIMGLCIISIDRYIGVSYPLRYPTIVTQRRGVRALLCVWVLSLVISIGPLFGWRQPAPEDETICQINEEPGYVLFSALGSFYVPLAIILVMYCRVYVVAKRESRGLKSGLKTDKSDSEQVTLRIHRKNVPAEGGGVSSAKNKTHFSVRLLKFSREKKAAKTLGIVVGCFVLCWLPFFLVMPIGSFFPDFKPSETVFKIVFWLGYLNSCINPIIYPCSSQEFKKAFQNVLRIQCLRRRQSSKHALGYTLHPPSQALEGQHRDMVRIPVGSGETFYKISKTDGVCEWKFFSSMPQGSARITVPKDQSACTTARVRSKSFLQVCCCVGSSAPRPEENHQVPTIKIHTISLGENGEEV
- experimentalProtocol: Functional bioassay, isolated rat tail artery, noradrenaline contraction
- Format: biochemical
- testSettings: noradrenaline as agonist, read-out: pA2 ± S.E.M., α1A (converted)
Rule: measured Kb below 3 nM gets TRUE; anything equal to or greater than 3 nM gets FALSE.

[[record]]
smi = "COc1ccccc1N1CCN(CCOCCOc2c(C)cccc2C)CC1.Cl"
assignedcategory = "FALSE"

[[record]]
smi = "COc1ccccc1N1CCN(CCCOc2cc(C)cc(C)c2C)CC1"
assignedcategory = "TRUE"

[[record]]
smi = "COc1ccccc1N1CCN(CCCOc2c(C)cc(C)cc2C)CC1"
assignedcategory = "FALSE"

[[record]]
smi = "COc1ccccc1N1CCN(CCCOc2cc(C)ccc2Cl)CC1"
assignedcategory = "TRUE"

[[record]]
smi = "COc1ccccc1N1CCN(CCOCCOc2c(C)cccc2Cl)CC1.Cl"
assignedcategory = "FALSE"

